Test: Drug level in Sprague-Dawley rat blood at 10 mg/kg, ig after 24 hrs
Type: ADME, organism-based
Parameters: dose 10 mg/kg, route intragastric
Conditions: po, read-out: Drug uptake
quantity-measured: concentration at 24 h (ng/mL)
Reply with just the number (in ng/mL).

Field request: concentration at 24 h | item: CC(=O)O[C@@H](C[C@@H](C)C1=C2C[C@H](OC(C)=O)[C@H]3[C@@]4(C)CCC(=O)C(C)(C)[C@@H]4CC[C@]3(C)[C@@]2(C)CC1)[C@@H](OC(C)=O)C(C)(C)OC(C)=O 2.03

---

Assay: Drug level in Sprague-Dawley rat blood at 2 mg/kg, iv after 4 hrs
Format: ADME, organism-based
Parameters: dose 2 mg/kg, route intravenous
Details: read-out: Drug uptake
quantity-measured: concentration at 4 h (ng/mL)
Reply with just the number (in ng/mL).

Field request: concentration at 4 h | item: CC(=O)O[C@@H](C[C@@H](C)C1=C2C[C@H](OC(C)=O)[C@H]3[C@@]4(C)CCC(=O)C(C)(C)[C@@H]4CC[C@]3(C)[C@@]2(C)CC1)[C@@H](OC(C)=O)C(C)(C)OC(C)=O 14.5
